biological target: HEK 293 GPR73 (prokineticin 1 receptor) expressing cells (Homo sapiens, UniProt Q8TCW9); assay: PK1 functional assay: screening for PK1 antagonists on the FLIPR (calcium fluorescence); details: HEK 293 GPR73 cells, PK1 ligand at EC50, multiple values = repeat tests, read-out: Ca^2+ Mobilization IC50
Sequence (Q8TCW9 whole entry): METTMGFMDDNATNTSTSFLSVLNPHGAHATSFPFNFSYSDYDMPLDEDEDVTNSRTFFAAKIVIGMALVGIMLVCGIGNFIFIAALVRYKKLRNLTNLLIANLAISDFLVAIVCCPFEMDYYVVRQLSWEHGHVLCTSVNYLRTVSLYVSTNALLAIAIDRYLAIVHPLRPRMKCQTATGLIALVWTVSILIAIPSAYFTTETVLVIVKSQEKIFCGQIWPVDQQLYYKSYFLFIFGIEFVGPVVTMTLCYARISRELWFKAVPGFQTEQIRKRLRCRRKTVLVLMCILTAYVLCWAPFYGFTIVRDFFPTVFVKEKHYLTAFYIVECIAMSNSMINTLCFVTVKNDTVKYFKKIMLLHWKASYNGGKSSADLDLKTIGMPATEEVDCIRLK
Endpoint Label: IC50

Examples from the recorded data:
Compound: CCOC(=O)c1ccc(NC(=N)NCCNc2nc(=O)n(Cc3ccc(F)cc3)c(=O)n2Cc2ccc(OC)cc2)cc1
IC50: 0.508 µM
--
Compound: COc1ccc(Cn2c(NCCNC(=N)N)nc(=O)n(Cc3ccccc3OC)c2=O)cc1
IC50: > 10 µM
--
Compound: N=C(N)NCCNc1nc(=O)n(Cc2ccccc2)c(=O)n1Cc1cccc(C(F)(F)F)c1
IC50: > 10 µM
--
Compound: COc1ccc(Cn2c(NCCNC(=N)N)nc(=O)n(CC(C)(C)C)c2=O)cc1
IC50: > 10 µM
--
Compound: NC(N)=NCCNc1nc(=O)n(Cc2ccccc2)c(=O)n1Cc1ccc(F)cc1
IC50: > 10 µM

Please examine the following record next.
[ask] Complete the entry with IC50 for COc1ccc(Cn2c(NC3CCC(NC(=N)N)CC3)nc(=O)n(Cc3ccc(F)cc3)c2=O)cc1 (stereo not drawn)
[reply] > 10 µM
